Tested on: MALME-3M melanoma
experimental_protocol: NCI tumour cell line growth inhibition, 48 h
readout: TGI

> print(dat)
                                    compound  readout    result
 1  Cc1cc(C)c(C2=NO[C@@H]3C(=O)N(c4ccc(Cc5ccc(N6C(=O)[C@H]7C(c8c(C)cc(C)cc8C)=NO[C@H]7C6=O)cc5)cc4)C(=O)[C@H]23)c(C)c1      TGI  > 100 µM
 2  COC(=O)[C@@H](NC(=O)c1ccc(CNC(=O)/C(C)=C/c2ccccc2)cc1)C(C)C      TGI  > 100 µM
 3  C[C@]12CCC(=O)C=C1CC[C@@H]1C2CC[C@@]2(C)C1CC[C@@H]2OC(=O)C12OC1CCC2=O (some centres not stated)      TGI   33.9 µM
 4     COC(=O)c1cc2c(nc1C)-c1ccccc1OS2(=O)=O      TGI  > 100 µM
 5  Cn1cc(-c2ccc3nnc(C(F)(F)c4ccc5ncccc5c4)n3n2)cn1      TGI  > 100 µM
 6  O=c1sc(-c2nc3ccccc3[nH]2)c(/N=C/c2ccccc2)n1-c1ccccc1      TGI  > 100 µM
 7  O=C(O)c1ccccc1C1c2ccc(Cl)cc2Oc2cc(Cl)ccc21      TGI  > 100 µM
 8            CN(C)C=Nc1c2c(nc3ccccc13)CCCC2      TGI  > 100 µM
 9  Cc1nc2cc(Nc3nc(Nc4ccc(F)cc4)nc(N4CCCC4)n3)ccc2n1Cc1ccccc1      TGI   3.17 µM
10          C1C[S][Ge]2([S]CCS1)[S]CCSCC[S]2      TGI  > 100 µM
11  CP(=O)(O)C(N)c1ccccc1 (configuration not stated)      TGI  > 100 µM
12  COc1c(OC)c(OC)c(-c2cc(=O)c3c(OC)c(OC)c(OC)c(OC)c3o2)c(OC)c1OC      TGI  > 100 µM

----------
Tested on: TK-10 renal
experimental_protocol: NCI tumour cell line growth inhibition, 48 h; in the data active = GI50 below about 0.43 µM; inactive = the rest
Possible outcomes: 1.0 (active), 0.0 (inactive)

> print(dat)
                                   compound  group.label
1  CNC(=O)c1cc(Oc2ccc3nc(NC(=O)Nc4cc(C(F)(F)F)cc(C(F)(F)F)c4)sc3c2)ccn1          0.0
2  [Au+].c1c[n-]cn1.c1ccc([PH+](c2ccccc2)c2ccccc2)cc1          0.0
3  Cn1c(=O)c(-c2c(Cl)cccc2Cl)cc2cnc(Nc3ccc(I)cc3)nc21          0.0
4  COC1C(C)OC(OC2CC(C)(O)Cc3cc4c(c(O)c32)C(=O)c2c(O)cc3c(c2C4=O)OC2OC3(C)C(O)C(N(C)C)C2O)C(OC)C1(C)OC (stereo unspecified)          1.0
5          COc1ccc(/C=C/C(=O)c2ccccc2)cc1OC          0.0
6  O=C(c1ccccc1)c1c2n(c3c1cc(O)c1ccccc13)CCN2          0.0

----------
Tested on: NCI-H460 lung
experimental_protocol: NCI tumour cell line growth inhibition, 48 h
readout: TGI

> print(dat)
                                    compound   assay.target    result
 1  CN(CC1NCCCC1O)C12CC3CC(CC(C3)C1)C2 (configuration not stated)  NCI-H460 lung  > 100 µM
 2  Nc1nc(Cl)nc2c1ncn2C1OC(CO)C(O)C1O (configuration not stated)  NCI-H460 lung  > 100 µM
 3  O=C1NC2OC(CO)C(O)C(O)C2O1 (configuration not stated)  NCI-H460 lung  > 100 µM
 4  COc1ccc(NC(=O)C2=CC(=O)c3ccc(O)cc3C2=O)c(OC)c1  NCI-H460 lung  > 100 µM
 5  CC(=O)CC12NC(=O)N(C)N=C1N(C)C(=O)N(C)C2=O (configuration not stated)  NCI-H460 lung  > 100 µM
 6                 N/C(=N/N=C/c1cccc(F)c1)NO  NCI-H460 lung  > 100 µM
 7  [Au+].c1c[n-]cn1.c1ccc([PH+](c2ccccc2)c2ccccc2)cc1  NCI-H460 lung   59.9 µM
 8      Brc1ccc(C[N+]23CN4CN(CN(C4)C2)C3)cc1  NCI-H460 lung  > 100 µM
 9  Nc1nc(N)c2nc(CNc3ccc(C(=O)NC(CCNC(=O)c4ccccc4C(=O)O)C(=O)O)cc3)cnc2n1 (configuration not stated)  NCI-H460 lung  > 100 µM
10                         O=[P+](O)c1cccnc1  NCI-H460 lung  > 100 µM
11  CN1c2ccccc2S(=O)(=O)n2c(COc3ccccc3)nnc21  NCI-H460 lung  > 100 µM
12  C=CCn1c(=O)c(C(=O)NC(=O)OCC)cn(C2CCCCC2)c1=O  NCI-H460 lung  > 100 µM

----------
Test system: A549 NSCLC
experimental_protocol: NCI tumour cell line growth inhibition, 48 h
readout: TGI

> print(dat)
                                    compound  readout    result
 1  COc1ccc2c(c1)CC1N(C)CCC13CCCCC23 (configuration not stated)      TGI  > 100 µM
 2  COc1cc(O)c2c(=O)c(OC)c(-c3ccc(OC)c(OC)c3)oc2c1.[Sn]      TGI  > 100 µM
 3  Cc1cc(C)c(C2=NO[C@@H]3C(=O)N(c4ccc(Cc5ccc(N6C(=O)[C@H]7C(c8c(C)cc(C)cc8C)=NO[C@H]7C6=O)cc5)cc4)C(=O)[C@H]23)c(C)c1      TGI  > 100 µM
 4  Nc1nc(N)c2nc(CNc3ccc(C(=O)NC(CCNC(=O)c4ccccc4C(=O)O)C(=O)O)cc3)cnc2n1 (configuration not stated)      TGI  > 100 µM
 5           COc1cc2nc3n(c(=O)c2cc1OC)CCCCC3      TGI  > 100 µM
 6               CSCC(COC(C)=O)(CSC)c1ccncc1      TGI  > 100 µM
 7   COc1cc2oc(-c3ccc(O)cc3)cc(=O)c2c(OC)c1O      TGI  > 100 µM
 8  CCC1OC2C(CC=C(C)C)=C3OC(C)(O)C(C)(CC)C(=O)C3=C3OC(=O)C=C1C32 (configuration not stated)      TGI  > 100 µM
 9                      c1cnc2nc3n(c2c1)CSC3      TGI  > 100 µM
10  c1ccc(N2N=NC3C4CC(C5c6ccccc6C45)C32)cc1 (configuration not stated)      TGI  > 100 µM
11  CN1c2ccccc2S(=O)(=O)n2c(COc3ccccc3)nnc21      TGI  > 100 µM
12      Brc1ccc(C[N+]23CN4CN(CN(C4)C2)C3)cc1      TGI  > 100 µM

----------
System: SK-MEL-5 melanoma
experimental_protocol: NCI tumour cell line growth inhibition, 48 h
Documented TGI across a set of compounds
readout: TGI

> print(dat)
                                   compound       assay.target  readout    result
1           COc1cc2nc3n(c(=O)c2cc1OC)CCCCC3  SK-MEL-5 melanoma      TGI  > 100 µM
2  O=C(O)c1ccccc1C1c2ccc(Cl)cc2Oc2cc(Cl)ccc21  SK-MEL-5 melanoma      TGI  > 100 µM
3  Cc1cc(=O)[nH]c(NNC(C#N)c2ccc(N(C)C)cc2)n1 (stereo not drawn)  SK-MEL-5 melanoma      TGI  > 100 µM
4  Cc1cc2c(cc1-c1cc3c(cc1C)C(C(C)C)=C(O)C(=O)/C3=C\Nc1ccccn1)/C(=C/Nc1ccccn1)C(=O)C(O)=C2C(C)C  SK-MEL-5 melanoma      TGI  > 100 µM
5  Cc1cc(C)c(C(=O)/C(=C/c2ccccc2)c2ccccc2)c(C)c1  SK-MEL-5 melanoma      TGI  > 100 µM
6  C=C(C)C1CCC2(C(=O)O)CCC3(C)C(CCC4C5(C)CCC(O)C(C)(C)C5CCC43C)C12 (stereo not drawn)  SK-MEL-5 melanoma      TGI   20.3 µM
7  O=C1C(c2c(O)[nH]c3ccc(I)cc23)=Nc2ccccc21  SK-MEL-5 melanoma      TGI   10.8 µM
8  ClCc1ccc(-c2ccc(Cn3cnc4c(Cl)ncnc43)cc2)cc1  SK-MEL-5 melanoma      TGI   7.17 µM

----------
Tested on: DU-145 prostate
experimental_protocol: NCI tumour cell line growth inhibition, 48 h
readout: GI50

> print(dat)
                                   compound    result
1  Cc1ccnc(NC(c2ccccc2)c2ccc3cccnc3c2O)c1 (configuration not stated)    4.9 µM
2  CN1CCN(Cn2nc(-c3cc(F)c(Cl)cc3Cl)oc2=S)CC1   41.4 µM
3          COc1cccc(/C=C2\CCc3ccccc3C2=O)c1   6.07 µM
4  COc1ccc2c(c1)C(=O)c1c-2c(OCCN2CCCCC2)nc2ccc(OC)cc12  0.519 µM
5  COc1cc(OC)c(/C=C/C(=O)c2c(O)cc(OC)c(C3CCN(C)CC3)c2OC)c(OC)c1   1.75 µM
6  [Au+].c1c[n-]cn1.c1ccc([PH+](c2ccccc2)c2ccccc2)cc1   17.2 µM
7  O=C(Nc1nc(-c2ccccc2Cl)cs1)c1cc(-c2ccc(Cl)cc2)nc2ccc(Cl)cc12   4.24 µM

Origin of measurements: PubChem BioAssay (NCI)
